- System: Colletotrichum gloeosporioides
- procedure-summary: Antifungal activity assay, mycelial growth inhibitory rate method
- Type: cell-based
- experimental-setup: mycelial growth, PDA medium, 100-0.0488 μg/mL
measured-endpoint: IC50 (µg/mL)

- compound: "C=CCOc1cc(OC)c(Cl)c2c1C(=O)[C@@]1(O2)C(OC)=CC(=O)C[C@H]1C [Compound 02, 4 Position Allyl Griseofulvin Derivative]"
  value-unit: "µg/mL"
  reported-measurement: 4.05

[P] COC1=CC(=O)C[C@@H](C)[C@]12Oc1c(Cl)c(OC)cc(OCc3ccsc3)c1C2=O [Compound 07]
[Q] C#CCOc1cc(OC)c(Cl)c2c1C(=O)[C@@]1(O2)C(OC)=CC(=O)C[C@H]1C [Compound 01]
[R] COC1=CC(=O)C[C@@H](C)[C@]12Oc1c(Cl)c(OC)cc(OCc3ccccc3F)c1C2=O [Compound 06]
[S] COCOc1cc(OC)c(Cl)c2c1C(=O)[C@@]1(O2)C(OC)=CC(=O)C[C@H]1C [Compound 05]
query: Which order do these items take when sorted by rising IC50? List them. Please list the labels in the order you were asked to rank them.
result: Q, R, P, S

These measurements were taken from patent US12692244B2.
